Target: SARS-CoV-2 Spike on wild-type pseudotyped virus (PsV) (SARS-CoV-2, UniProt P0DTC2 14-1273)
Test: cell-based or functional assay
Listing: IC50 SARS-CoV2 PsV (IgG) of selected binders

# BINDER, IC50 SARS-CoV2 PsV (IgG)
rows = [
    ("mAb 56 (antibody, V domains shown, also called IgG 56; Antibody 56) VH: QVQLVQSGAEVKKPGASVKVSCKASGYTFTSYGISWVRQAPGQGLEWMGWISAYNGNTNYAQKLQGRVTMTRDTSTSTVYMELSSLRSEDTAVYYCARDIGPIDYWGQGTLVTVSS VL: DIQMTQSPSSLSASVGDRVTITCRASQGISSYLAWYQQKPGKAPKLLIYDASNLQSGVPSRFSGSGSGTDFTLTISSLQPEDFATYYCQQANSFPSTFGQGTKVEIKR", "> 50 µg/mL"),
]

With those in mind, consider the next binder.
**Query** Requested read-out: IC50 SARS-CoV2 PsV (IgG). Entry: mAb 108 (antibody, V domains shown) VH: QVQLVQSGAEVKKPGASVKVSCKASGYIFSRYAIHWVRQAPGQGLEWMGWMNPISGNTDYAPNFQGRVTMTRDTSTSTVYMELSSLRSEDTAVYYCAKDGSQLAYLVEYFQHWGQGTLVTVSS VL: DIQMTQSPSSLSASVGDRVTITCRASQVITNNLAWYQQKPGKAPKLLIYDASTLETGVPSRFSGSGSGTDFTLTISSLQPEDFATYYCQQSYTFPYTFGQGTKVEIKR
**Result** > 50 µg/mL
